pKi: −log10 of the molar value.
# literature pull: Histone deacetylase 5 (Homo sapiens, UniProt Q9UQL6) pKi
# Sequence (Q9UQL6 whole entry): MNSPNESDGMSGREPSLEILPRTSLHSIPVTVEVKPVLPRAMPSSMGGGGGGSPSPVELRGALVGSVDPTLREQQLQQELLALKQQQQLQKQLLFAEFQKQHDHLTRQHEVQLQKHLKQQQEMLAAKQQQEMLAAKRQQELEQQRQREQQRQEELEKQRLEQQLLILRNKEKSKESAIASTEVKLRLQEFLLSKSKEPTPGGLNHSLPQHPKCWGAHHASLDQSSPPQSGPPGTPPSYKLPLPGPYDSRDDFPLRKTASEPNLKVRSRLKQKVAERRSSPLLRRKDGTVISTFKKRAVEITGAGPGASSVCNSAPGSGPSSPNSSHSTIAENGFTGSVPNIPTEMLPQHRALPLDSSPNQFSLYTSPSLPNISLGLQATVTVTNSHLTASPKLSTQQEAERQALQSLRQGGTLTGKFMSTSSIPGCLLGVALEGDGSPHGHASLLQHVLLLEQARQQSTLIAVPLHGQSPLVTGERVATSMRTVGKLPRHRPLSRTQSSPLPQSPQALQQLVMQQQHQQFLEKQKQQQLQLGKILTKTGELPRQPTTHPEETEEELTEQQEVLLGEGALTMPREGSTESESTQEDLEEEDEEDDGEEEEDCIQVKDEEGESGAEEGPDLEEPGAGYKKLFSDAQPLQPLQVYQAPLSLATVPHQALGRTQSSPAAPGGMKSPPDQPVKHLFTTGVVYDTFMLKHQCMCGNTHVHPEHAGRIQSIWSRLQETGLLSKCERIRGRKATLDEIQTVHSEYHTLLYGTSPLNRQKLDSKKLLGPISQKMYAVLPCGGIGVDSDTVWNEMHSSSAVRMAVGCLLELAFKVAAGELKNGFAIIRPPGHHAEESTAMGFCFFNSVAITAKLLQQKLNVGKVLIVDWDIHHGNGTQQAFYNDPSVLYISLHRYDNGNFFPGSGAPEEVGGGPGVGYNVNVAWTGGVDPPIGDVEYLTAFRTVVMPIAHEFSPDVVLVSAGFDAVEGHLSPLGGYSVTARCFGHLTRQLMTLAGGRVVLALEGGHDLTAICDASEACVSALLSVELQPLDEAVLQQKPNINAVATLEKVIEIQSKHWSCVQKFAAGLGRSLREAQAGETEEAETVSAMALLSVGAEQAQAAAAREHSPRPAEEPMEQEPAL

Field: example entries. Status: answers known.
* Cn1cc(CNCC2CCN(c3ncc(C(=O)NO)cn3)CC2)c2ccccc21 | 8.68
* O=C(NO)C(F)(F)C(F)(F)C(F)(F)C(F)(F)C(F)(F)C(F)(F)C(=O)Nc1cccc2cc3ccccc3cc12 | < 4.30
* O=C(NO)C(F)(F)C(F)(F)C(F)(F)C(F)(F)C(F)(F)C(F)(F)C(=O)Nc1ccc2ccccc2c1 | < 4.30
* CC/C=C\CCc1nc2cc(/C=C/C(=O)NO)ccc2n1CCNCC | 8.51
* COc1ccc(NC(=O)C(F)(F)C(F)(F)C(F)(F)C(F)(F)C(F)(F)C(F)(F)C(=O)NO)cc1 | < 4.30
* Cc1ccccc1NC(=O)C(F)(F)C(F)(F)C(F)(F)C(F)(F)C(F)(F)C(F)(F)C(=O)NO | < 4.30

We next turn to a different compound, shown below.
Requested read-out pKi, target or system Histone deacetylase 5 (Homo sapiens, UniProt Q9UQL6), entry `O=C(NO)C(F)(F)C(F)(F)C(F)(F)C(F)(F)C(F)(F)C(F)(F)C(=O)Nc1cccc2ccccc12` < 4.30
